# MEASUREMENT NOTES: physchem
PROPERTY MEASURED: solubility (µg/mL)
Please reply with the bare figure in µg/mL and do not write the unit itself.

For the compound shown here, CCCCC(=O)O[C@]1(C(=O)CO)[C@@H](C)C[C@H]2[C@@H]3CCC4=CC(=O)C=C[C@]4(C)[C@@]3(F)[C@@H](O)C[C@@]21C [betamethasone valerate, Betamethasone valerate] , give the reported solubility. 5
